Target: FLT3-D835Y mutant kinase (Homo sapiens, UniProt P36888, D835Y)
Construct: purchased SignalChem
Test: FLT3-D835Y mutant kinase assay (AlphaScreen)
Assay type: biochemical
Conditions: read-out: Ranking of IC50 values, FLT3-D835Y
pIC50: −log10 of the molar value.
Observed Property: pIC50

**Q:** What pIC50 value was documented for this compound, Cc1cc(-c2cc3c(s2)Cc2c(-c4ccc5cnn(C)c5c4)n[nH]c2-3)ccc1CN1CCOCC1 [Compound 26] ?
**A:** 8.00 to 9.00

**Q:** What pIC50 value was documented for this compound, COC1CN(Cc2ccc(-c3cc4c(s3)Cc3c(-c5ccc6cnn(C)c6c5)n[nH]c3-4)cc2)C1 [Compound 105] ?
**A:** > 9.00

**Q:** What pIC50 value was documented for this compound, CN(C)Cc1ccc(-c2cc3c(s2)Cc2c(-c4ccc5cnn(C)c5c4)n[nH]c2-3)cn1 [Compound 93] ?
**A:** 8.00 to 9.00

**Q:** What pIC50 value was documented for this compound, Cn1ncc2ccc(-c3n[nH]c4c3Cc3sc(-c5ccc(N6CCOCC6)nc5)cc3-4)cc21 [Compound 82] ?
**A:** 8.00 to 9.00

**Q:** What pIC50 value was documented for this compound, Cn1ncc2ccc(-c3n[nH]c4c3Cc3sc(-c5ccc(CN6CCOCC6)cn5)cc3-4)cc21 [Compound 95] ?
**A:** > 9.00

**Q:** What pIC50 value was documented for this compound, C[C@H]1COCCN1Cc1ccc(-c2cc3c(s2)Cc2c(-c4ccc5cnn(C)c5c4)n[nH]c2-3)cc1 [Compound 75] ?
**A:** > 9.00

**Q:** What pIC50 value was documented for this compound, Cn1ncc2ccc(-c3n[nH]c4c3Cc3sc(-c5ccc(CN6CCOCC6)s5)cc3-4)cc21 [Compound 51] ?
**A:** > 9.00

**Q:** What pIC50 value was documented for this compound, CN(C)S(=O)(=O)c1ccc(-c2cc3c(s2)Cc2c(-c4ccc5cnn(C)c5c4)n[nH]c2-3)cc1 [Compound 50] ?
**A:** > 9.00

**Q:** What pIC50 value was documented for this compound, Cc1ccc(-c2cc3c(s2)Cc2c(-c4ccc5cnn(C)c5c4)n[nH]c2-3)cn1 [Compound 11] ?
**A:** > 9.00

**Q:** What pIC50 value was documented for this compound, CN1CCN(Cc2ccc(-c3cc4c(s3)Cc3c(-c5ccc6cn[nH]c6c5)n[nH]c3-4)cc2)CC1 [Compound 83] ?
**A:** > 9.00

**Q:** What pIC50 value was documented for this compound, Cn1ncc2ccc(-c3n[nH]c4c3Cc3sc(-c5csc(C(=O)N6CCOCC6)c5)cc3-4)cc21 [Compound 48] ?
**A:** > 9.00

**Q:** What pIC50 value was documented for this compound, Cc1ccc(-c2cc3c(s2)Cc2c(-c4ccc5cnn(C)c5c4)n[nH]c2-3)cn1 [Compound 33] ?
**A:** > 9.00

**Q:** What pIC50 value was documented for this compound, Cc1n[nH]c2cc(-c3n[nH]c4c3Cc3sc(-c5ccc(CN6CCOCC6)cc5)cc3-4)ccc12 [Compound 81] ?
**A:** 8.00 to 9.00

**Q:** What pIC50 value was documented for this compound, C[C@@H]1CN(Cc2cccc(-c3cc4c(s3)Cc3c(-c5ccc6cnn(C)c6c5)n[nH]c3-4)c2)C[C@H](C)O1 [Compound 12] ?
**A:** 8.00 to 9.00

**Q:** What pIC50 value was documented for this compound, Cn1ncc2ccc(-c3n[nH]c4c3Cc3sc(-c5ccc(CN6CCCCC6)cc5)cc3-4)cc21 [Compound 100] ?
**A:** > 9.00
